assay: Monitoring of the plasma concentration of the main oligosaccharides of a VLMWH in human volunteers (plasma filtration + anion-exchange HPLC); type: in vivo; settings: 1.25 h after administration of VLMWH (2500 Da) 1.4 mg/kg
property: plasma concentration (nM)

molecule: O=C(O)C1=CC(O)C(OS(=O)(=O)O)C(OC2C(COS(=O)(=O)O)OC(OC3C(C(=O)O)OC(OC4C(COS(=O)(=O)O)OC(OC5C(C(=O)O)OC(OC6C(COS(=O)(=O)O)OC(O)C(NS(=O)(=O)O)C6O)C(OS(=O)(=O)O)C5O)C(NS(=O)(=O)O)C4O)C(OS(=O)(=O)O)C3O)C(NS(=O)(=O)O)C2O)O1 (centres unmarked)
plasma concentration (nM): 40

molecule: O=C(O)C1=CC(O)C(OS(=O)(=O)O)C(OC2C(COS(=O)(=O)O)OC(OC3C(C(=O)O)OC(OC4C(COS(=O)(=O)O)OC(O)C(NS(=O)(=O)O)C4O)C(OS(=O)(=O)O)C3O)C(NS(=O)(=O)O)C2O)O1 (centres unmarked)
plasma concentration (nM): 190

molecule: CC(=O)NC1C(OC2C(C(=O)O)OC(OC3C(COS(=O)(=O)O)OC(OC4C(C(=O)O)OC(OC5C(COS(=O)(=O)O)OC(O)C(NS(=O)(=O)O)C5O)C(OS(=O)(=O)O)C4O)C(NS(=O)(=O)O)C3OS(=O)(=O)O)C(O)C2O)OC(COS(=O)(=O)O)C(OC2OC(C(=O)O)=CC(O)C2O)C1O (centres unmarked)
plasma concentration (nM): 120

molecule: O=C(O)C1=CC(O)C(OS(=O)(=O)O)C(OC2C(COS(=O)(=O)O)OC(O)C(NS(=O)(=O)O)C2O)O1 (centres unmarked)
plasma concentration (nM): 200

molecule: CC(=O)NC1C(OC2C(C(=O)O)OC(OC3C(COS(=O)(=O)O)OC(OC4C(C(=O)O)OC(OC5C(COS(=O)(=O)O)OC(OC6C(C(=O)O)OC(OC7C(COS(=O)(=O)O)OC(O)C(NS(=O)(=O)O)C7O)C(OS(=O)(=O)O)C6O)C(NS(=O)(=O)O)C5O)C(OS(=O)(=O)O)C4O)C(NS(=O)(=O)O)C3OS(=O)(=O)O)C(O)C2O)OC(COS(=O)(=O)O)C(OC2OC(C(=O)O)=CC(O)C2O)C1O (centres unmarked)
plasma concentration (nM): 40
